Source listed as patent US20240270821A1.

molecular target: human glucagon receptor (human) (UniProt P47871); experiment: cell-based or functional assay
Sequence (P47871 26-477): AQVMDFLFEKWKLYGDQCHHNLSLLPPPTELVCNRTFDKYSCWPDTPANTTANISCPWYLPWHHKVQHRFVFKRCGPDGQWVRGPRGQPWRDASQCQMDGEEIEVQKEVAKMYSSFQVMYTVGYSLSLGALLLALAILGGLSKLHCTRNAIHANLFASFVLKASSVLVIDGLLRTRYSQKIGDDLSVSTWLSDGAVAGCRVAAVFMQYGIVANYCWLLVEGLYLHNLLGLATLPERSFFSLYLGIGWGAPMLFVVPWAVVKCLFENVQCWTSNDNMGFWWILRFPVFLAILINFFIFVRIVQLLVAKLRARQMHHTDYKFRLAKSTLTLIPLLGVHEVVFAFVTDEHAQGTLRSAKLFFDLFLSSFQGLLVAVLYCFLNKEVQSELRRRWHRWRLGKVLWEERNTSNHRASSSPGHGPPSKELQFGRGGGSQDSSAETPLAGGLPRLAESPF
Rule for this label: Criterion met means cAMP Rel EC50 (in the presence of 1% HSA) is less than 300 nM; Criterion not met means cAMP Rel EC50 (in the presence of 1% HSA) is at least 300 nM.

// known answers, use as guide
binder: YXQGTXTSDXXIXLDXKAQXEFIEXLIEGGPPSXXPPPXGE (non-natural residues; lipidated Lys; C-terminal amide; synthetic construct; SITE 2: note = 2-Aminoisobutyric Acid; SITE 6: note = alpha-methyl-2-fluoro-L-phenylalanine; SITE 10: note = 3-(4-Pyridyl)-L-alanine; SITE 11: note = alpha-methyl-L-serine; SITE 13: note = alpha-methyl-leucine; SITE 16: note = L-ornithine; SITE 17: note = Lysine is chemically mo) [Example 1195]
discreteLabel: Criterion met

binder: YXQGTXTSDXSIXLDKKAQXAFIEYLQEGGPSSGEPPPSGSEE (non-natural residues; Lys acylated C18 diacid via γGlu2; C-term amide; synthetic construct; SITE 2: note = 2-Aminoisobutyric Acid; SITE 6: note = alpha-methyl-2-fluoro-L-phenylalanine; SITE 10: note = 3-(4-Pyridyl)-L-alanine; SITE 13: note = alpha-methyl-leucine; SITE 17: note = Lysine is chemically modified through conjugation of the epsilon-amino group of the Lysine) [Example 634]
discreteLabel: Criterion not met

binder: YXQGTXTSDXXIXLDXKAQXEFIEXLIEGGPSSGAPPPSGE (non-natural residues; lysine acylated with AEEA linker C18 diacid; C-amide; synthetic construct; SITE 2: note = 2-Aminoisobutyric Acid; SITE 6: note = alpha-methyl-L-phenylalanine; SITE 10: note = 3-(4-Pyridyl)-L-alanine; SITE 11: note = alpha-methyl-L-serine; SITE 13: note = alpha-methyl-leucine; SITE 16: note = L-ornithine; SITE 17: note = Lysine is chemically modified th) [Example 1164]
discreteLabel: Criterion not met

binder: YXQGTXTSDXXIXLDXKAQXEFIEXLVEGGPSSGEPPPSGSE (non-natural residues; lipidated Lys; C-terminal amide; synthetic construct; SITE 2: note = 2-Aminoisobutyric Acid; SITE 6: note = alpha-methyl-2-fluoro-L-phenylalanine; SITE 10: note = 3-(4-Pyridyl)-L-alanine; SITE 11: note = alpha-methyl-L-serine; SITE 13: note = alpha-methyl-leucine; SITE 16: note = L-ornithine; SITE 17: note = Lysine is chemically mo) [Example 1163]
discreteLabel: Criterion met

binder: YXQGTFTSDFSXXLDKKAQXAFIEYLLEAGPSSGXPPPSGX (acylated lysine (AEEA)2-γGlu-C18 diacid; non-natural residues; C-terminal amide; synthetic construct; SITE 2: note = 2-Aminoisobutyric Acid; SITE 12: note = L-ornithine; SITE 13: note = alpha-methyl-leucine; SITE 17: note = Lysine is chemically modified through conjugation of the epsilon-amino group of the Lysine side chain with (2-[2-(2-Amino-ethoxy)-ethoxy]-acetyl)2-(gamma-Glu)) [Example 258]
discreteLabel: Criterion not met

Now, please, on to the next binder.
Problem: Please indicate whether the reported cAMP Rel EC50 (in the presence of 1% HSA) of YXQGTFTSDXXQXLDXKAQXQFIEXLIAXGPSSGAPPPSGGGE (not fully specified; non-natural residues; γGlu-C18 diacid on Lys; C-terminal amide; synthetic construct; SITE 2: note = 2-Aminoisobutyric Acid; SITE 10: note = 3-(4-Pyridyl)-L-alanine; SITE 11: note = alpha-methyl-L-serine; SITE 13: note = alpha-methyl-leucine; SITE 16: note = L-ornithine; SITE 17: note = Lysine is chemically modified through conjugation of the epsilon-amino group) [Example 1185] is strictly below 300 nM.
Solution: Criterion met
